Tested on: MCF-7 cells
Protocol: Inhibition of proliferation of MCF-7 cells (ATP method)
Format: cell-based
Conditions Used: Homo sapiens, MCF7; 72 h, Cell Titer-Glo; read-out: IC50, inhibitory effect on proliferation of MCF-7 cells
Parameter: pIC50
Answers are plain numbers, as −log10 of the molar value.

// query Given "[2H]C1([2H])Oc2cc3c(cc2O1)[C@@H](c1ccc(NC2CN(CCCF)C2)cn1)N(CC(F)(F)CO)[C@H](C)C3" , state its recorded pIC50.
// result 9.54

###

Target Or System: CYP3A4 (Homo sapiens (Human))
Sequence (P08684 whole entry): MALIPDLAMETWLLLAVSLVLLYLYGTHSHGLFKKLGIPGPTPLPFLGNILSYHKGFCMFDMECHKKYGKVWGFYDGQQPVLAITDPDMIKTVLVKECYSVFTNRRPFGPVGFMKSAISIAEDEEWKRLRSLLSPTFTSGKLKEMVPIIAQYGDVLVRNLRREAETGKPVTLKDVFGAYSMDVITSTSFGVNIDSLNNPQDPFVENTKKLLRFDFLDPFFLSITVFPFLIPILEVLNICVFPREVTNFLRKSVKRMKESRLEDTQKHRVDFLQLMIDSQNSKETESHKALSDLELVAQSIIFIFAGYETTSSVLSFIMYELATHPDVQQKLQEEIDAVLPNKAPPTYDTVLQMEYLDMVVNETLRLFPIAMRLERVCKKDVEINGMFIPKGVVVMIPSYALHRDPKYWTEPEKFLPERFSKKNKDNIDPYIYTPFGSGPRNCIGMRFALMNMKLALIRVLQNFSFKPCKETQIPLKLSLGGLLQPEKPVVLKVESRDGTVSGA
Protocol: Time-dependent inhibition of site of metabolism of midazolam in human liver microsome CYP3A4
Type: in vitro ADME
Conditions Used: human, microsomes
Parameter: IC50 shift at 30 min
Give bare numbers.

// query Given [2H]C1([2H])Oc2cc3c(cc2O1)[C@@H](c1ccc(NC2CN(CCCF)C2)cn1)N(CC(F)(F)CO)[C@H](C)C3 [Compound 1] , state its recorded IC50 shift at 30 min.
// result 0.7
